molecular target: Chymotrypsin (Bos taurus, UniProt P00766); construct: purchased Sigma-Aldrich; assay: Chymotrypsin inhibition, fluorogenic substrate assay (Suc-Ala-Ala-Pro-Phe-AMC); format: biochemical; conditions: 40 min pre-incubation; mean, n = 3; read-out: IC50 Chymotrypsin
pIC50: −log10 of the molar value.
Param threshold (7) applies to pIC50; output Condition met when value >= threshold, Condition not met when value < threshold.

compound | group
C/C=C1\NC(=O)[C@@H](NC(=O)[C@@H](NC(=O)[C@H](C)NC(=O)CCC)[C@@H](C)O)[C@@H](C)OC(=O)[C@H](C(C)C)NC(=O)[C@H](Cc2ccc(O)c(Br)c2)N(C)C(=O)[C@H](Cc2ccccc2)N2C(=O)[C@H](CC[C@H]2O)NC1=O [Molassamide B, molassamide B] | Condition met
C/C=C1\NC(=O)[C@@H](NC(=O)[C@@H](NC(=O)[C@H](C)NC(=O)CCC)[C@@H](C)O)[C@@H](C)OC(=O)[C@H](C(C)C)NC(=O)[C@H](Cc2ccc(O)cc2)N(C)C(=O)[C@H](Cc2ccccc2)N2C(=O)[C@H](CC[C@H]2O)NC1=O [Molassamide, molassamide] | Condition not met
CCCC(=O)N1CCCC1C(=O)NC(C(=O)NC1C(=O)NC(CC(C)C)C(=O)NC2CCC(O)N(C2=O)C(Cc2ccccc2)C(=O)N(C)C(Cc2ccc(O)cc2)C(=O)NC(C(C)C)C(=O)OC1C)C(C)OC(=O)C1CCCN1C(=O)CCC (stereo not drawn) [Rivulariapeptolide 1185, rivulariapeptolide 1185] | Condition met
CC=C1NC(=O)[C@@H](NC(=O)[C@@H](NC(=O)[C@@H]2CCCN2C(=O)CCC)[C@@H](C)OC(=O)C2CCCN2C(=O)CCC)[C@@H](C)OC(=O)[C@H](C(C)C)NC(=O)[C@H](Cc2ccc(O)cc2)N(C)C(=O)[C@H](CC(C)C)N2C(=O)[C@H](CC[C@H]2O)NC1=O (stereo partly drawn) [Rivulariapeptolide 1121, rivulariapeptolide 1121] | Condition met

Note: attention shifts to another entry.
Input: Can CC=C1NC(=O)[C@@H](NC(=O)[C@@H](NC(=O)[C@@H]2CCCN2C(=O)CCC)[C@@H](C)OC(=O)C2CCCN2C(=O)CCC)[C@@H](C)OC(=O)[C@H](C(C)C)NC(=O)[C@H](Cc2ccc(O)cc2)N(C)C(=O)[C@H](Cc2ccccc2)N2C(=O)[C@H](CC[C@H]2O)NC1=O (stereo partly drawn) [Rivulariapeptolide 1155, rivulariapeptolide 1155] be said to have pIC50 at or above 7?
Output: Condition met

* * *

Record form. Attribute: Mean (RFU/s). Fill in for each entry.
target: Proteinase K (Parengyodontium album, UniProt P06873); construct: purchased Roche; test: Proteinase K inhibition, fluorogenic substrate assay (Suc-Ala-Ala-Pro-Phe-AMC); assay type: biochemical, Tritirachium album; conditions: Proteinase K; inhibitor concentration 1000 nM; 40 min pre-incubation
Sequence (P06873 106-384): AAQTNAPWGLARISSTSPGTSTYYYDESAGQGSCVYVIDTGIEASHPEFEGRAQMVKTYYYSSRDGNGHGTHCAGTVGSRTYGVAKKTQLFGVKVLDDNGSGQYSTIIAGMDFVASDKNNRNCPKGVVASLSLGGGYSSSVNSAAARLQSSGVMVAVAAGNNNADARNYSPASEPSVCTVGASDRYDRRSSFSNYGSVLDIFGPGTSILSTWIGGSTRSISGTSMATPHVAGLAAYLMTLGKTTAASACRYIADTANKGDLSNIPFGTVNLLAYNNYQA
Give bare numbers, in RFU/s.

Some entries whose results are on file:
compound | value
CC=C1NC(=O)[C@@H](NC(=O)[C@@H](NC(=O)[C@@H]2CCCN2C(=O)CCC)[C@@H](C)OC(=O)C2CCCN2C(=O)CCC)[C@@H](C)OC(=O)[C@H](C(C)C)NC(=O)[C@H](Cc2ccc(O)cc2)N(C)C(=O)[C@H](CC(C)C)N2C(=O)[C@H](CC[C@H]2O)NC1=O (stereo partly drawn) [Rivulariapeptolide 1121, rivulariapeptolide 1121] | 0
C/C=C1\NC(=O)[C@@H](NC(=O)[C@@H](NC(=O)[C@H](C)NC(=O)CCC)[C@@H](C)O)[C@@H](C)OC(=O)[C@H](C(C)C)NC(=O)[C@H](Cc2ccc(O)cc2)N(C)C(=O)[C@H](Cc2ccccc2)N2C(=O)[C@H](CC[C@H]2O)NC1=O [Molassamide, molassamide] | 0.07

Now for the compound whose Mean (RFU/s) we want.
Short answer for CC=C1NC(=O)[C@@H](NC(=O)[C@@H](NC(=O)[C@@H]2CCCN2C(=O)CCC)[C@@H](C)OC(=O)C2CCCN2C(=O)CCC)[C@@H](C)OC(=O)[C@H](C(C)C)NC(=O)[C@H](Cc2ccc(O)cc2)N(C)C(=O)[C@H](Cc2ccccc2)N2C(=O)[C@H](CC[C@H]2O)NC1=O (stereo partly drawn) [Rivulariapeptolide 1155, rivulariapeptolide 1155] : Mean (RFU/s) was 0.09033

* * *

target: Elastase (Sus scrofa, UniProt P00772); construct: purchased Sigma-Aldrich; experiment: Elastase inhibition, fluorogenic substrate assay (MeOSuc-Ala-Ala-Pro-Val-AMC); assay type: biochemical, Sus domesticus; details: Elastase; inhibitor concentration 12.3457 nM; 40 min pre-incubation
Sequence (P00772 27-266): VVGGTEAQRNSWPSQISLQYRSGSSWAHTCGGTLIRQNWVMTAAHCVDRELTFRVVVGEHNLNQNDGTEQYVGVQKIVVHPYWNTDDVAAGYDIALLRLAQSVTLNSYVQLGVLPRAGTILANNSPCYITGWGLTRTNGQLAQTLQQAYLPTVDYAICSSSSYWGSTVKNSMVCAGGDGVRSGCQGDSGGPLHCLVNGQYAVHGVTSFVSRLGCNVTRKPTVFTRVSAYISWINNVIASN
property.name: Mean (RFU/s)
Give bare numbers, in RFU/s.

Recorded Mean (RFU/s), per entry:
compound | experimental.target | units.of.measure | Mean (RFU/s)
CC=C1NC(=O)[C@@H](NC(=O)[C@@H](NC(=O)[C@@H]2CCCN2C(=O)CCC)[C@@H](C)OC(=O)C2CCCN2C(=O)CCC)[C@@H](C)OC(=O)[C@H](C(C)C)NC(=O)[C@H](Cc2ccc(O)cc2)N(C)C(=O)[C@H](CC(C)C)N2C(=O)[C@H](CC[C@H]2O)NC1=O (stereo partly drawn) [Rivulariapeptolide 1121, rivulariapeptolide 1121] | Elastase (Sus scrofa, UniProt P00772) | RFU/s | 0.4323
C/C=C1\NC(=O)[C@@H](NC(=O)[C@@H](NC(=O)[C@H](C)NC(=O)CCC)[C@@H](C)O)[C@@H](C)OC(=O)[C@H](C(C)C)NC(=O)[C@H](Cc2ccc(O)c(Br)c2)N(C)C(=O)[C@H](Cc2ccccc2)N2C(=O)[C@H](CC[C@H]2O)NC1=O [Molassamide B, molassamide B] | Elastase (Sus scrofa, UniProt P00772) | RFU/s | 0.418

Field: next compound
Note to self: Mean (RFU/s) of CCCC(=O)N1CCCC1C(=O)NC(C(=O)NC1C(=O)NC(CC(C)C)C(=O)NC2CCC(O)N(C2=O)C(Cc2ccccc2)C(=O)N(C)C(Cc2ccc(O)cc2)C(=O)NC(C(C)C)C(=O)OC1C)C(C)OC(=O)C1CCCN1C(=O)CCC (stereo not drawn) [Rivulariapeptolide 1185, rivulariapeptolide 1185] with Elastase (Sus scrofa, UniProt P00772) was 0.589

* * *

target: Elastase (Sus scrofa); construct: purchased Sigma-Aldrich; assay: Elastase inhibition, fluorogenic substrate assay (MeOSuc-Ala-Ala-Pro-Val-AMC); assay type: biochemical, Sus domesticus; details: Elastase; inhibitor concentration 0.0508053 nM; 40 min pre-incubation
property.name: Mean (RFU/s)

In the examples that follow, each entry is paired with its recorded Mean (RFU/s).
molecule | Mean (RFU/s)
C/C=C1\NC(=O)[C@@H](NC(=O)[C@@H](NC(=O)[C@H](C)NC(=O)CCC)[C@@H](C)O)[C@@H](C)OC(=O)[C@H](C(C)C)NC(=O)[C@H](Cc2ccc(O)cc2)N(C)C(=O)[C@H](Cc2ccccc2)N2C(=O)[C@H](CC[C@H]2O)NC1=O [Molassamide, molassamide] | 0.8563 RFU/s
CC=C1NC(=O)[C@@H](NC(=O)[C@@H](NC(=O)[C@@H]2CCCN2C(=O)CCC)[C@@H](C)OC(=O)C2CCCN2C(=O)CCC)[C@@H](C)OC(=O)[C@H](C(C)C)NC(=O)[C@H](Cc2ccc(O)cc2)N(C)C(=O)[C@H](CC(C)C)N2C(=O)[C@H](CC[C@H]2O)NC1=O (stereo partly drawn) [Rivulariapeptolide 1121, rivulariapeptolide 1121] | 0.8433 RFU/s

// switching to the query molecule
Memo: CCCC(=O)N1CCCC1C(=O)NC(C(=O)NC1C(=O)NC(CC(C)C)C(=O)NC2CCC(O)N(C2=O)C(Cc2ccccc2)C(=O)N(C)C(Cc2ccc(O)cc2)C(=O)NC(C(C)C)C(=O)OC1C)C(C)OC(=O)C1CCCN1C(=O)CCC (stereo not drawn) [Rivulariapeptolide 1185, rivulariapeptolide 1185] , reported Mean (RFU/s): 0.9257 RFU/s

* * *

target: Proteinase K (Parengyodontium album, UniProt P06873); construct: purchased Roche; assay: Proteinase K inhibition, fluorogenic substrate assay (Suc-Ala-Ala-Pro-Phe-AMC); format: biochemical, Tritirachium album; conditions: Proteinase K; inhibitor concentration 333.333 nM; 40 min pre-incubation
property.name: Mean (RFU/s)
Numbers only, in RFU/s.

compound | units.of.measure | Mean (RFU/s)
CCCC(=O)N1CCCC1C(=O)NC(C(=O)NC1C(=O)NC(CC(C)C)C(=O)NC2CCC(O)N(C2=O)C(Cc2ccccc2)C(=O)N(C)C(Cc2ccc(O)cc2)C(=O)NC(C(C)C)C(=O)OC1C)C(C)OC(=O)C1CCCN1C(=O)CCC (centres unmarked) [Rivulariapeptolide 1185, rivulariapeptolide 1185] | RFU/s | 0.4863

Now, please, on to the next compound.
The reported Mean (RFU/s) of the compound CC=C1NC(=O)[C@@H](NC(=O)[C@@H](NC(=O)[C@@H]2CCCN2C(=O)CCC)[C@@H](C)OC(=O)C2CCCN2C(=O)CCC)[C@@H](C)OC(=O)[C@H](C(C)C)NC(=O)[C@H](Cc2ccc(O)cc2)N(C)C(=O)[C@H](CC(C)C)N2C(=O)[C@H](CC[C@H]2O)NC1=O (some centres unmarked) [Rivulariapeptolide 1121, rivulariapeptolide 1121] was 0.1023
